assay: Plasma concentration in ICR mouse at 15 mg/kg, po measured after 8 hrs by LC-MS/MS analysis; type: ADME, organism-based
Below is a list of entries, each paired with its recorded concentration at 8 h value.
measured-property: concentration at 8 h (ng/mL)

- structure-smiles: "C/C(=N\\OCc1cc(C(=O)O)ccc1C#N)c1ccc(OCc2c(-c3ccccc3OC(F)(F)F)noc2C2CC2)cc1Cl"
  recorded-measurement: 8.4
- structure-smiles: "C/C(=N\\OCc1cc(C(=O)O)ccc1C#N)c1ccc(OCc2c(-c3c(Cl)cccc3Cl)noc2C2CC2)cc1Cl"
  recorded-measurement: 7.8

====

test: Ratio of drug uptake in ICR mouse liver to plasma at 15 mg/kg, po measured after 8 hrs by LC-MS/MS analysis; format: ADME, organism-based
measured-property: Kp at 8 h

- structure-smiles: "C/C(=N\\OCc1cc(C(=O)O)ccc1C#N)c1ccc(OCc2c(-c3c(Cl)cccc3Cl)noc2C2CC2)cc1Cl"
  measured-property: "Kp at 8 h"
  recorded-measurement: 43
